Data origin, for the record: patent US20100298141A1

Recorded Plant response rating, Sandbur, one value per entry.
- Test system: field sandbur
- procedure summary: Test G preemergence test
- Type: in vivo, Cenchrus incertus
- condition: 62 g ai/ha, scale 0 to 100
endpoint label: Plant response rating, Sandbur

>>> df
                                   molecule  test_value
0  Cn1nc(C(F)(F)F)c(CS(=O)(=O)c2ccc(Cl)c[n+]2[O-])c1OC(F)F [Compound 7]           0
1  Cc1cc[n+]([O-])c(S(=O)(=O)C(Cl)c2c(C(F)(F)F)nn(C)c2Cl)c1 (racemic) [Compound 22]          60
2  Cc1cc[n+]([O-])c([S+]([O-])Cc2c(C(F)(F)F)nn(C)c2OC(F)F)c1 (stereo not shown) [Compound 1]          40
3  Cn1nc(C(F)(F)F)c(C(Cl)S(=O)(=O)c2cccc[n+]2[O-])c1Cl (stereo not shown) [Compound 12]          85

---

Plant response rating, Cupgrass, Woolly values, listed per item
- Tested on: woolly cupgrass
- procedure summary: Test C pre-/postemergence test
- Assay type: in vivo, Eriochloa villosa
- condition: Postemergence, 62 g ai/ha; scale 0 to 100, 0 no effect, 100 complete control
endpoint label: Plant response rating, Cupgrass, Woolly

                                   molecule  test_value
0  CCn1nc(C(F)(F)F)c(C(C)S(=O)(=O)c2cccc[n+]2[O-])c1OCC(F)(F)F (centres unmarked)           0
1  CCn1nc(C(F)(F)F)c(CS(=O)(=O)c2cc(C)cc[n+]2[O-])c1OCC(F)(F)F           0
2  Cn1nc(C(F)(F)F)c(C[S+]([O-])c2cccc[n+]2[O-])c1OCC(F)(F)C(F)(F)F (centres unmarked)           0
3  Cn1nc(C(F)(F)F)c(C[S+]([O-])c2ccc(F)c[n+]2[O-])c1OC(F)F (centres unmarked)           0
4  [O-][n+]1cc(Cl)ccc1[S+]([O-])Cc1c(C(F)(F)F)nn(CC(F)(F)F)c1Cl (centres unmarked)           0
5  Cn1nc(C(F)(F)F)c(C[S+]([O-])c2cccc[n+]2[O-])c1OC(F)F (centres unmarked)           0
6  CC(c1c(C(F)(F)F)nn(C)c1OC(F)F)S(=O)(=O)c1cccc[n+]1[O-] (centres unmarked)          40
7  Cn1nc(C(F)(F)F)c(C[S+]([O-])c2ccc(Cl)c[n+]2[O-])c1OC(F)F (centres unmarked)           0

---

- System: catchweed bedstraw
- procedure summary: Test C pre-/postemergence test
- Type: in vivo, Galium aparine
- condition: Preemergence, 31 g ai/ha; scale 0 to 100 (0 no effect, 100 complete control)
Reported Plant response rating, Galium values for a set of compounds
endpoint label: Plant response rating, Galium

                                   compound  test_value
0  Cn1nc(C(F)(F)F)c(C[S+]([O-])c2cc(C(C)(C)C)cc[n+]2[O-])c1OC(F)F (racemic)           0
1  Cc1cc[n+]([O-])c(S(=O)(=O)Cc2c(C(F)(F)F)nn(C)c2OCC(F)F)c1          95
2  CCc1cc[n+]([O-])c([S+]([O-])Cc2c(C(F)(F)F)nn(C)c2OCC(F)(F)F)c1 (stereo not shown)           0
3  Cn1nc(C(F)(F)F)c(C[S+]([O-])c2ccc(Cl)c[n+]2[O-])c1OCC(F)F (stereo not shown)          98
4  Cn1nc(C(F)(F)F)c(C[S+]([O-])c2ccc(Cl)c[n+]2[O-])c1OCC(F)(F)F (racemic)         100
5  CC(c1c(C(F)(F)F)nn(C)c1OCC(F)(F)F)S(=O)(=O)c1cccc[n+]1[O-] (racemic)         100
6  CC(Oc1c(C[S+]([O-])c2ccc(Cl)c[n+]2[O-])c(C(F)(F)F)nn1C)C(F)(F)F (stereo not shown)          70
